Assignment: determine reported Kd for the given binders.
- targetDesc: T1, human HIDE1 (human, UniProt A8MVS5 20-230)
- T1 construct: Endogenous on U937, HL-60, THP-1 cells, blood monocytes, AML blasts and dendritic cells; also called C19orf38; hHIDE1
- T1 sequence: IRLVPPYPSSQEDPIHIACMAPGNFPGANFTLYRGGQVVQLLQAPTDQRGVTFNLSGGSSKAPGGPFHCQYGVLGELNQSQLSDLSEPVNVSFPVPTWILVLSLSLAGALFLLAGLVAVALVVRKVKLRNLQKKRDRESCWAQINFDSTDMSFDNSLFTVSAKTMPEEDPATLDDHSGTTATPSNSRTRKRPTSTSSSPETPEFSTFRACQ
- experimentalDetails: FACS titration on 293T-huHIDE1 cells, human IgG4 (preliminary FACS KD)
Give your result in nM as a bare value.

Using the record for CPA.12.001 human IgG4 (antibody, V domains shown, also called CPA.12.001-H4) VH: QVQLVESGGGLVQPGRSLRLSCAASGFTFSSYGMHWVRQAPGKGLEWVAVISYDGSNKYYADSVKGRFTISRDNSKNTLYLQMNSLRAEDTAVYYCASEGVDFWSGLDYWGQGTLVTVSS VL: QSALTQPRSASGSAGQSVTISCTGTSSDVGGHNYVSWYQQFPGKAPKLLIYEVSHRPSGVPDRFSGSKSGNTASLTVSGLQAEDEADYYCSSYADLNNLMFGGGTKLTVLG , state its measured Kd.
61

Using the record for CPA.12.003 human IgG4 (antibody, V domains shown, also called CPA.12.003-H4) VH: QVQLQESGPGLVTPSETLSLTCTVSGGSISSVSYYWGWVRQPPGKGLEWIGSIYYSGTTAHNPSLKSRVTMAVDTSKNQFSLSLSSVTAADTAVYFCARGWRYYEDYYFDHWGQGTLVTVSS VL: DIQMTQSPSTLSASVGDRVTITCRASQSINRWLAWYQQKPGKAPKILIYTASSLESGVPSRFSGSGSGTEFTLTISSLQPDDFATYYCQQYNSYPITFGQGTRLEIKR , state its measured Kd.
18

Using the record for CPA.12.012 human IgG4 (antibody, V domains shown, also called CPA.12.012-H4; CPA.12.0012-H4) VH: QVQLVESGGGVVQPGRSLRLSCAASGFTFSSYAMHWVRQAPGKGLEWVAVISYDGSNKYYADSVKGRFTISRDNSKNTLYLQMNSLRAEDTAVYYCARSSGSSWSNIAYWGQGTLVTVSS VL: QSVLTQPPSVSGAPGQRVTISCIGSSSNIGAGYDVHWYRQLPGTAPKLLIYDNTNRPSGVPDRFSASKSGISASLAITGLQAEDEADYYCQSYDSNLSGVFGGGTQLTVLG , state its measured Kd.
1.3

Using the record for CPA.12.004 human IgG4 (antibody, V domains shown, also called CPA.12.004-H4) VH: EVQLVETGGGLIQPGRSLRLSCVASDFRFSNHAMHWVRQAPGKELEWVAVISSDGSNRQYAYSVKGRFTISRDNSKNTLYLEMNILGPEDTAVYFCVRSHLGPEWYYGMDVWGQGTTVTVSS VL: DIQMTQSPSSLSTSVGDSVTITCRSSQSISTFLSWFQHKPGKAPNLLIYDASSLQSGVPSRFSGSGSGTDFTLTISSLQPEDFATYYCQQSDYLPFTFGPGTKVEIKR , state its measured Kd.
1.4

Using the record for CPA.12.014 human IgG4 (antibody, V domains shown, also called CPA.12.014-H4) VH: QVTLKESGPALVTPTQNLTLTCTVSGGSISSSSYYWGWIRQPPGKGLEWIGSIYYSGSTYYNPSLKSRVTISVDTSKNQFSLKLSSVTAADTAVYYCARRRNSSGWFYFDYWGQGTLVTVSS VL: QSVLTQPPSVSGAPRQRVTISCSGSRSNIGDNAVNWYQHPPGKAPKLLIYYDDLLPSGVSDRFSGSKSGTSASLAISGLQSEDEADYYCATWDDSLNGHVFGTGTKLTVLG , state its measured Kd.
13
